- TEST SYSTEM: Recombinant human JAK3 catalytic domain (Homo sapiens (Human), UniProt P52333)
- Sequence (P52333 781-1124): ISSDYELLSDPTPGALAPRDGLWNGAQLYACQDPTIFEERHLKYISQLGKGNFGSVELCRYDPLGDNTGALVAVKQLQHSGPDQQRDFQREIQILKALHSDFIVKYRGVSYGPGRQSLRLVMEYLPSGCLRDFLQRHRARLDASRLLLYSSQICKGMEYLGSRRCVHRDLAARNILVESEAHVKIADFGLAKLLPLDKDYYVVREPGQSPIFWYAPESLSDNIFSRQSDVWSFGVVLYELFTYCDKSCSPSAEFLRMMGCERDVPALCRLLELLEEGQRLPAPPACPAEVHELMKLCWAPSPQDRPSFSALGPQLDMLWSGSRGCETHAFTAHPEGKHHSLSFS
- ASSAY PROTOCOL: JAK3 inhibition assay
- Type: biochemical
- TEST SETTINGS: semi-quantitative score
pIC50: −log10 of the molar value.
ASSAY READOUT: pIC50

Requested field: pIC50. Item: `CN(CCc1ccccc1)C(=O)c1ccc(-c2cccc3nc(NC(=O)C4CC4)nn23)cc1`
< 6.00

Requested field: pIC50. Item: `O=C(Nc1nc2cccc(-c3ccc(NS(=O)(=O)c4ccccc4F)cc3)n2n1)C1CC1`
< 6.00

Requested field: pIC50. Item: `O=C(NCCc1ccc(C(F)(F)F)cc1)c1ccc(-c2cccc3nc(NC(=O)C4CC4)nn23)cc1`
6.30 to 7.00

Requested field: pIC50. Item: `O=C(NCCOc1ccccc1)c1ccc(-c2cccc3nc(NC(=O)C4CC4)nn23)c(F)c1`
< 6.00

Requested field: pIC50. Item: `CC(=O)Nc1nc2cccc(-c3ccc(OCc4ccccc4)cc3)n2n1`
6.30 to 7.00

Requested field: pIC50. Item: `Cc1n[nH]c(C)c1CCOc1ccc(-c2cccc3nc(NC(=O)C4CC4)nn23)cc1`
6.00 to 6.30

Requested field: pIC50. Item: `O=C(Nc1nc2cccc(-c3ccc(CN4CCOCC4)cc3)n2n1)C1CC1`
< 6.00

Requested field: pIC50. Item: `O=C(Nc1nc2cccc(-c3ccc(C(=O)N4CCC(O)(Cc5ccccc5)CC4)cc3)n2n1)C1CC1`
6.30 to 7.00

Requested field: pIC50. Item: `Cc1cc(COc2ccc(-c3cccc4nc(NC(=O)C5CC5)nn34)cc2)n(C)n1`
6.30 to 7.00

Requested field: pIC50. Item: `O=C(Nc1ccccc1)c1ccc(-c2cccc3nc(NC(=O)C4CC4)nn23)cc1`
< 6.00

Requested field: pIC50. Item: CC(Oc1ccc(-c2cccc3nc(NC(=O)C4CC4)nn23)cc1)c1ccccn1 (stereo not drawn)
6.00 to 6.30

Requested field: pIC50. Item: `O=C(Nc1nc2cccc(-c3ccc(OCc4ccccc4)c(F)c3)n2n1)C1CC1`
6.30 to 7.00

Requested field: pIC50. Item: `O=C(Nc1nc2cccc(-c3ccc(CN4CCC(F)(F)CC4)cc3)n2n1)C1CC1`
6.30 to 7.00

Requested field: pIC50. Item: `CN(C(=O)c1ccc(-c2cccc3nc(NC(=O)C4CC4)nn23)cc1)c1ccccc1`
< 6.00

Requested field: pIC50. Item: `O=C(Nc1nc2cccc(-c3ccc(C(=O)N4CCCC4)cc3)n2n1)C1CC1`
< 6.00

----------
- ASSAY PROTOCOL: Caco2 permeability (bi-directional)
- Format: in vitro ADME, human
- TEST SETTINGS: human, pH 7.4; Caco-2, ratio of PappB>A/PappA>B
Answer each item with its documented efflux ratio at 1 h, 10 µM.
Simply state the number, no unit and no words.

Requested field: efflux ratio at 1 h, 10 µM. Item: O=C(Nc1nc2cccc(-c3ccc(C(=O)N4CCC(O)CC4)cc3)n2n1)C1CC1 [Compound 209]
36

Requested field: efflux ratio at 1 h, 10 µM. Item: O=C(Nc1nc2cccc(-c3ccc(CNc4ccon4)cc3)n2n1)C1CC1 [Compound 302]
5.98

Requested field: efflux ratio at 1 h, 10 µM. Item: N#Cc1ccc(COc2ccc(-c3cccc4nc(NC(=O)C5CC5)nn34)cc2)cn1 [Compound 176]
0.8

Requested field: efflux ratio at 1 h, 10 µM. Item: O=C(Nc1nc2cccc(-c3ccc(CC(=O)N4CC(F)(F)C4)cc3)n2n1)C1CC1 [Compound 317]
10.1

Requested field: efflux ratio at 1 h, 10 µM. Item: CC1(C)CN(C(=O)c2ccc(-c3cccc4nc(NC(=O)C5CC5)nn34)cc2)C1 [Compound 330]
5.5

Requested field: efflux ratio at 1 h, 10 µM. Item: O=C(Nc1nc2cccc(-c3ccc(C(=O)N4CCC(F)(F)C4)cc3)n2n1)C1CC1 [Compound 271]
13

Requested field: efflux ratio at 1 h, 10 µM. Item: Cc1cc(COc2ccc(-c3cccc4nc(NC(=O)C5CC5)nn34)cc2)no1 [Compound 52]
1.02

Requested field: efflux ratio at 1 h, 10 µM. Item: O=C(Nc1nc2cccc(-c3ccc(CNC4CCS(=O)(=O)C4)cc3)n2n1)C1CC1 (stereo not shown) [Compound 304]
69.7

Requested field: efflux ratio at 1 h, 10 µM. Item: O=C(Nc1nc2cccc(-c3ccc(C(=O)N4CCC(C(=O)c5ccccc5)CC4)cc3)n2n1)C1CC1 [Compound 74]
1.14

Requested field: efflux ratio at 1 h, 10 µM. Item: O=C(Nc1nc2cccc(-c3cnn(Cc4ccccc4)c3)n2n1)C1CC1 [Compound 107]
1.05

----------
- TEST SYSTEM: Recombinant human JAK1 catalytic domain (Homo sapiens (Human))
- Sequence (P23458 850-1154): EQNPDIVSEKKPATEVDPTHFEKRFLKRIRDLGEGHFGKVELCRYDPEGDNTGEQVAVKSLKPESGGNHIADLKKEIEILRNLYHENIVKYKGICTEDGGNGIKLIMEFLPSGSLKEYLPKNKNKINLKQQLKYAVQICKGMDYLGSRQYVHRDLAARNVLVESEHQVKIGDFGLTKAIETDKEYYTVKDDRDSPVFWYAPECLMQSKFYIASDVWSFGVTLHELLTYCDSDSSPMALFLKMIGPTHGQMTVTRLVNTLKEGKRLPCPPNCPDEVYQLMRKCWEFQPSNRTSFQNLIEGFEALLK
- ASSAY PROTOCOL: JAK1 inhibition assay
- Assay type: biochemical
- TEST SETTINGS: semi-quantitative score
- Method: Plates were washed 6 times with 300 μL per well of a 75 mM phosphoric acid solution and the bottom of the plates was sealed. 40 μL/well of Microscint-20 was added, the top of the plates was sealed and readout was performed using the Topcount (Perkin Elmer). Kinase activity was calculated by subtracting counts per minute (cpm) obtained in the presence of a positive control inhibitor (10 μM staurosporine) from cpm obtained in the presence of vehicle. […]
ASSAY READOUT: IC50

API: value(readout=IC50, system=Recombinant human JAK1 catalytic domain (Homo sapiens (Human))) for record O=C(CCc1ccccc1)Nc1ccc(-c2cccc3nc(NC(=O)C4CC4)nn23)cc1 [Compound 109]
< 100 nM

API: value(readout=IC50, system=Recombinant human JAK1 catalytic domain (Homo sapiens (Human))) for record O=C(Nc1nc2cccc(-c3cnn(Cc4ccccc4)c3)n2n1)C1CC1 [Compound 107]
< 100 nM

API: value(readout=IC50, system=Recombinant human JAK1 catalytic domain (Homo sapiens (Human))) for record O=C(Nc1nc2cccc(-c3ccc(CN4CCC(C(F)(F)F)CC4)cc3)n2n1)C1CC1 [Compound 240]
< 100 nM

API: value(readout=IC50, system=Recombinant human JAK1 catalytic domain (Homo sapiens (Human))) for record O=C(NCCN1CCCC1)c1ccc(-c2cccc3nc(NC(=O)C4CC4)nn23)cc1 [Compound 80]
101 to 500 nM

API: value(readout=IC50, system=Recombinant human JAK1 catalytic domain (Homo sapiens (Human))) for record O=C(Nc1nc2cccc(-c3ccc(OCC(=O)N4CCCCC4)cc3)n2n1)C1CC1 [Compound 117]
> 1000 nM

API: value(readout=IC50, system=Recombinant human JAK1 catalytic domain (Homo sapiens (Human))) for record O=C1CN(Cc2ccc(-c3cccc4nc(NC(=O)C5CC5)nn34)cc2)CCN1 [Compound 311]
101 to 500 nM

API: value(readout=IC50, system=Recombinant human JAK1 catalytic domain (Homo sapiens (Human))) for record O=C(Nc1ccc(-c2cccc3nc(NC(=O)C4CC4)nn23)cc1)C1CCCCC1 [Compound 45]
101 to 500 nM

API: value(readout=IC50, system=Recombinant human JAK1 catalytic domain (Homo sapiens (Human))) for record N#CCc1ccccc1NCc1ccc(-c2cccc3nc(NC(=O)C4CC4)nn23)cc1 [Compound 225]
< 100 nM

API: value(readout=IC50, system=Recombinant human JAK1 catalytic domain (Homo sapiens (Human))) for record O=C(Nc1nc2cccc(-c3ccc(NS(=O)(=O)CCc4cccc(F)c4)cc3)n2n1)C1CC1 [Compound 88]
< 100 nM

API: value(readout=IC50, system=Recombinant human JAK1 catalytic domain (Homo sapiens (Human))) for record CN(C)C(=O)C1CN(Cc2ccc(-c3cccc4nc(NC(=O)C5CC5)nn34)cc2)C1 [Compound 299]
501 to 1000 nM

API: value(readout=IC50, system=Recombinant human JAK1 catalytic domain (Homo sapiens (Human))) for record COC(=O)c1ccc(COc2ccc(-c3cccc4nc(NC(=O)C5CC5)nn34)cc2)nc1 [Compound 190]
< 100 nM

----------
Answer each item with its documented pIC50.
- TEST SYSTEM: Recombinant human JAK2 catalytic domain (Homo sapiens (Human), UniProt O60674)
- Sequence (O60674 808-1132): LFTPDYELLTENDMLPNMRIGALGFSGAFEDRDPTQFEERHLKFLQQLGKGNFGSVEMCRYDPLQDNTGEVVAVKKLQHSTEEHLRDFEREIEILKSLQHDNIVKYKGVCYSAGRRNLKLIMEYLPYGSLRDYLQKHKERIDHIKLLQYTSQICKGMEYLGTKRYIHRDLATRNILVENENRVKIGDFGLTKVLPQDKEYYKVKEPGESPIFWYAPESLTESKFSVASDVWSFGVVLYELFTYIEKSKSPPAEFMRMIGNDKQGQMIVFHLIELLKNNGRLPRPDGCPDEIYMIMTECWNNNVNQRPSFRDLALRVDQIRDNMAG
- ASSAY PROTOCOL: JAK2 inhibition assay
- Assay type: biochemical
- TEST SETTINGS: semi-quantitative score
pIC50: −log10 of the molar value.

Requested field: pIC50. Item: `CN(CCc1ccccc1)C(=O)c1ccc(-c2cccc3nc(NC(=O)C4CC4)nn23)cc1`
> 7.00

Requested field: pIC50. Item: `Cc1noc(C)c1CCOc1ccc(-c2cccc3nc(NC(=O)C4CC4)nn23)cc1`
6.30 to 7.00

Requested field: pIC50. Item: `COc1ccc(NC(=O)c2ccc(-c3cccc4nc(NC(=O)C5CC5)nn34)cc2)cn1`
6.30 to 7.00

Requested field: pIC50. Item: `CC(=O)Nc1nc2cccc(-c3ccc(OCc4ccccc4)cc3)n2n1`
> 7.00

Requested field: pIC50. Item: `O=C(Nc1nc2cccc(-c3ccc(NS(=O)(=O)CCc4ccccc4)cc3)n2n1)C1CC1`
> 7.00

Requested field: pIC50. Item: `O=C(Nc1nc2cccc(-c3ccc(OCCn4cccn4)cc3)n2n1)C1CC1`
6.30 to 7.00
